Source listed as BindingDB's records for doi:10.1016/0960-894X(95)00398-D.

MEASURED TARGET: Beta-2 adrenergic receptor (Rattus norvegicus) (UniProt P10608)
Sequence (P10608 whole entry, looked up): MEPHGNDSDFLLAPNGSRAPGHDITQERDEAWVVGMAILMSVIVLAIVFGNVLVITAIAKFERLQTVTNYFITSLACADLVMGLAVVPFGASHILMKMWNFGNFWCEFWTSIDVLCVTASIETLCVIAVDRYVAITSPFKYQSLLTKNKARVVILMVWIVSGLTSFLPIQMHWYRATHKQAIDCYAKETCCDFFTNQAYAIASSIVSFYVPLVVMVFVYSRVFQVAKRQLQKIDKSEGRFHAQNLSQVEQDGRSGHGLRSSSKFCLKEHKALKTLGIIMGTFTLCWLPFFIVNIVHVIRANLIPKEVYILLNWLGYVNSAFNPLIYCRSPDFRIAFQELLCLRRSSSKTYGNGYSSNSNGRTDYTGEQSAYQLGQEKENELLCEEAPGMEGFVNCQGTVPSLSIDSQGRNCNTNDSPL
MEASUREMENT NAME: pKi
In plain terms, pKi is the concentration in mol/L turned into minus its base-10 logarithm.

Problem: Identify pKi associated with the compound COc1cccc2c1CCC[C@H]2CN(C)CCc1ccc2ccoc2c1 [A-80426]
Solution: 5.76
